- ASSAY_SUMMARY: Stability in 50% plasma in phosphate buffered saline
- Assay type: in vitro ADME
RECORDED_ENDPOINT: remaining at 24 h

In: So what's the measured remaining at 24 h for this one? CCOC(=O)[C@H](C)NP(=O)(CCC=C(C)C)N[C@@H](C)C(=O)OCC
Out: ≥ 70%

----------
For each of the compounds below, state its pIC50.
- System: K562 cells
- ASSAY_SUMMARY: Direct toxicity against K562 cells
- Type: cell-based
- MEASUREMENT_SETUP: Homo sapiens, K562, 72 h, read-out: Toxicity IC50
pIC50: −log10 of the molar value.

In: Please look up its pIC50: COC(=O)[C@@H](NP(=O)(CC/C=C(\C)CO)N[C@H](C(=O)OC)C(C)C)C(C)C
Out: 4.00 to 5.00

In: Param item: CCOC(=O)CNP(=O)(CC/C=C(\C)CO)NCC(=O)OCC
Out: 4.00 to 5.00
